The following binders are shown together with reported koff values.
Molecular target: T1, His-tagged human IL-1 Rrp2/IL-1R6 protein (human, UniProt Q9HB29 20-335, limits assumed)
T1 construct: Bought protein; also called His-tagged human IL-1 Rrp2/IL-IR6 protein; not shown: His tag
T1 sequence (looked up): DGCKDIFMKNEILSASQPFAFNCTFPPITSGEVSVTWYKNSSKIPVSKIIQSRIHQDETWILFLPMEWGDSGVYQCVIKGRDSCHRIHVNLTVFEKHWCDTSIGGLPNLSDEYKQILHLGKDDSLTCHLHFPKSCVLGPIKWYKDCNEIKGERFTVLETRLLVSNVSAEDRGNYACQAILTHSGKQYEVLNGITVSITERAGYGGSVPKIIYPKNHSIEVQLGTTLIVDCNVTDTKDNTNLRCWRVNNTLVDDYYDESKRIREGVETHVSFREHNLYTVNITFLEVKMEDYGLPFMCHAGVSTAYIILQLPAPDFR
Assay: SPR Biacore 8K, His-tagged antigen captured by anti-His antibody, antibody as analyte, 1:1 model
The answer is to be given in s⁻¹; state only the numeric part.

Would you please look over these solved cases?
Req: Specify measured koff for humanized anti-IL-36R antibody 900534 (antibody, V domains shown, IgG1 (vector with L234A, L235A) and human kappa) VH: QVQLVQSGAEVKKPGASVKVSCKASGYTFTSSWMHWAKQAPGQGLEWIGEIHPNSAKTNYNQKFQGRVTMTRDTSISTAYMELSRLRSDDTAVYYCARVDYGKPWFAYWGQGTLVTVSS VL: QIVLTQSPGTLSLSPGERATLSCRASSSVSSSYLHWYQQKPGQAPRLLIYSTSSRATGIPDRFSGSGSGTDFTLTISRLEPEDFATYYCQQFQSSPLTFGQGTKLEIK .
Resp: 5.1e-05

Req: Hello, please tell me recorded koff for this one: anti-IL-36R chimeric antibody 900497 (antibody, V domains shown, Human-mouse chimera: human IgG1 heavy constant region with L234A and L235A (Eu numbering), human kappa light constant region) VH: QVQLQQTGSVLVRPGTSVKLSCKASGYTFTSSWMHWAKQRPGQGLEWIGEIHPNSAKTNYNEKFKGKATLTVDTFSSTAYVDLSSLASEDSAVYYCARVDYGKPWFAYWGQGTLVTVSA VL: QIVLTQSPTIMSASPGERVTMTCSASSSVSSSYLHWYQQKPGSSPKLWIYSTSNLASGVPARFSGSGSGTSYSLTINSMEAEDAATYYCQQFQSSPLTFGAGTKLGLK
Resp: 1.68e-05

Others:
Req: Tell us which koff value is on record for humanized anti-IL-36R antibody 900527 (antibody, V domains shown, IgG1 (vector with L234A, L235A) and human kappa) VH: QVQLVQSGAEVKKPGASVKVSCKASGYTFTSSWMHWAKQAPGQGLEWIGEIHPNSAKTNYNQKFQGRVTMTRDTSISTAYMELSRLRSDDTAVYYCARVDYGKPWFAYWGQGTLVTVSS VL: QIVLTQSPGTLSLSPGERATLSCRASSSVSSSYLHWYQQKPGQAPRLWIYSTSSRATGIPDRFSGSGSGTDFTLTISRLEPEDFATYYCQQFQSSPLTFGQGTKLEIK
Resp: 4.37e-05
